- Test system: HCV genotype 1b replicon in Huh 7 cells
- assay name: HCV replicon assay (1b_Huh-Luc/Neo-ET cell line, luciferase readout)
- Type: cell-based
- setup conditions: Hepatitis C virus; Table 2; genotype 1b replicon, Huh 7 cells, 72 h, luciferase; read-out: Inhibition of HCV genotype 1b
pEC50: −log10 of the molar value.
quantity name: pEC50

Could you tell me which pEC50 is on file for "CC[C@@H](C)[C@H](NC(=O)OC)C(=O)N1CCC[C@H]1c1ncc(-c2ccc3cc(-c4ccc5nc([C@@H]6CCCN6C(=O)[C@@H](NC(=O)OC)[C@H](C)CC)[nH]c5c4)nnc3c2)[nH]1" ?
> 9.00

Could you do the same for "COC(=O)N[C@H](C(=O)N1CCC[C@H]1c1ncc(-c2ccc3cc(-c4ccc5nc([C@@H]6CCCN6C(=O)[C@@H](NC(=O)OC)[C@@H](C)OC)[nH]c5c4)ncc3c2)[nH]1)[C@@H](C)OC" , please?
> 9.00

Then this compound: "COC(=O)N[C@H](C(=O)N1CCC[C@H]1c1ncc(-c2ccc(-c3ccc4cc(-c5cnc([C@@H]6CSCCN6C(=O)[C@@H](NC(=O)OC)C(C)C)[nH]5)ccc4c3)cc2)[nH]1)C(C)C"
> 9.00

Please do the same for "COC[C@H](NC(=O)OC)C(=O)N1CCC[C@H]1c1ncc(-c2ccc3cc(-c4ccc5nc([C@@H]6CCCN6C(=O)[C@H](COC)NC(=O)OC)[nH]c5c4)ccc3c2)[nH]1" as well.
> 9.00

// query: "COC(=O)N[C@H](C(=O)N1CCC[C@H]1c1ncc(-c2ccc3cc(-c4ccc(-c5cnc([C@@H]6CCCN6C(=O)[C@H](NC(=O)OC)c6ccccc6)[nH]5)cn4)ccc3c2)[nH]1)C1CCOCC1"
> 9.00

Next up: "COC(=O)N[C@@H](C)C(=O)N1CCC[C@H]1c1ncc(-c2ccc3cc(-c4ccc(-c5cnc([C@@H]6CCCN6C(=O)[C@H](NC(=O)OC)c6ccccc6)[nH]5)cn4)ccc3c2)[nH]1"
> 9.00

Further, for "COC(=O)N[C@H](C(=O)N1CCC[C@H]1c1ncc(-c2ccc3cc(-c4ccc5nc([C@@H]6COCCN6C(=O)[C@@H](NC(=O)OC)[C@@H](C)O)[nH]c5c4)ccc3c2)[nH]1)[C@@H](C)O" ?
> 9.00

Another: "COC(=O)N[C@H](C(=O)N1CCC[C@H]1c1ncc(-c2ccc3nc(-c4ccc5nc([C@@H]6CCCN6C(=O)[C@@H](NC(=O)OC)C6CCCCC6)[nH]c5c4)ccc3c2)[nH]1)C1CCCCC1"
> 9.00

How about "COC(=O)N[C@H](C(=O)N1CCC[C@H]1c1ncc(-c2ccc3cc(-c4ccc5nc([C@@H]6CCCN6C(=O)[C@@H](NC(=O)OC)C6CCCCC6)[nH]c5c4)ccc3c2)[nH]1)C1CCCCC1" ?
> 9.00

----------
- Test system: HCV genotype 1b replicon in Huh 7 cells
- assay name: HCV replicon assay (1b_Huh-Luc/Neo-ET cell line, luciferase readout)
- Assay type: cell-based
- setup conditions: Hepatitis C virus, Huh-7; HCV 1b replicon; read-out: Inhibition of HCV genotype 1b
pEC50: −log10 of the molar value.
quantity name: pEC50

Some entries whose results are on file:
COC(=O)N[C@H](C(=O)N1CCC[C@H]1c1nc2ccc(-c3ccc4cc(-c5cnc([C@@H]6CCCN6C(=O)[C@@H](NC(=O)OC)[C@@H](C)OC)[nH]5)ccc4c3)nc2[nH]1)C1CCCC1 [compound 533]; > 9.00
COC(=O)N[C@H](C(=O)N1CCC[C@H]1C(=O)N[C@@H](C)c1ccc(-c2ccc3cc(-c4cnc([C@@H]5CCCN5C(=O)[C@@H](NC(=O)OC)[C@@H](C)OC)[nH]4)ccc3c2)cc1)[C@@H](C)OC [compound 558]; > 9.00
COC(=O)N[C@@H](C(=O)N1CCC[C@H]1c1ncc(-c2ccc3cc(-c4ccc5nc([C@@H]6CCCN6C(=O)[C@H](NC(=O)OC)C6=CCC=CC6)[nH]c5n4)ccc3c2)[nH]1)C1=CCC=CC1 [compound 523]; > 9.00
COC(=O)N[C@H](C(=O)N1CCC[C@H]1C(=O)N[C@@H](C)c1ccc(-c2ccc3cc(-c4cnc([C@@H]5CCCN5C(=O)[C@@H](NC(=O)OC)C5CCOCC5)[nH]4)ccc3c2)cc1)C1CCOCC1 [compound 559]; > 9.00

What does the data say about its pEC50? Entry: COC(=O)N[C@H](C(=O)N1CCC[C@H]1CNC(=O)c1cnc2cc(-c3ccc(-c4cnc([C@@H]5CCCN5C(=O)[C@@H](NC(=O)OC)C(C)C)[nH]4)cc3)ccc2c1)C(C)C [compound 552]
8.00 to 9.00
